Biological target: human recombinant GR (Homo sapiens)
Construct: purchased PanVera P2812
Sequence (P04150 1-777): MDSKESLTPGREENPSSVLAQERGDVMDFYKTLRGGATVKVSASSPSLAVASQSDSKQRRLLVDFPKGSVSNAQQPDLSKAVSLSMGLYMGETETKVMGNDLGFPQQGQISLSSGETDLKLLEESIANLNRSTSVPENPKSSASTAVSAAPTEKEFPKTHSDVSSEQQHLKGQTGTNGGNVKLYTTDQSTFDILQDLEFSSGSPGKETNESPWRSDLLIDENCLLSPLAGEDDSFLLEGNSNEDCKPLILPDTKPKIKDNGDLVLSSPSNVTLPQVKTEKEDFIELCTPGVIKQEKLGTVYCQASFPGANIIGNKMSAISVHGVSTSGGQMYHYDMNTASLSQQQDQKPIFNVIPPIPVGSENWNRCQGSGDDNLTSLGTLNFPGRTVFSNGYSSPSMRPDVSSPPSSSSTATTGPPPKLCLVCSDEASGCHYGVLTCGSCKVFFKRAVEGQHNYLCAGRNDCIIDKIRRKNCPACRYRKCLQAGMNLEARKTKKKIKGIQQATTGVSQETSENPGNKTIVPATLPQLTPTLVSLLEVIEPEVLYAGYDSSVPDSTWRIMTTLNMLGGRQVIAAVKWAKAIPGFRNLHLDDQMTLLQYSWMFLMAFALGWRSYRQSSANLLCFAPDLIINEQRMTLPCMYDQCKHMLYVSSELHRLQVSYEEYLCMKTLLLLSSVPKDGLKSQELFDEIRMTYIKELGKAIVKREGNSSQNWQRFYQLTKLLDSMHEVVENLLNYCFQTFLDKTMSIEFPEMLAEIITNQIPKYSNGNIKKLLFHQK
Assay: Human glucocorticoid receptor (GR) fluorescence polarisation (FP) binding assay
Conditions: human recombinant GR, fluorescence polarisation binding assay; read-out: GR binding
RESULT_TYPE: Ki

Recorded Ki, per entry:
# COMPOUND, MEASURED_TARGET, RESULT_TYPE, ENDPOINT_RESULT
records = [
    ("CCCn1nncc1S(=O)(=O)N1CCC2=Cc3c(cnn3-c3ccc(F)cc3)C[C@]2(C(=O)c2ccccn2)C1 [Example 11CO]", "human recombinant GR (Homo sapiens)", "Ki", "> 1 nM"),
    ("O=C(c1cscn1)[C@]12Cc3cnn(-c4ccc(F)cc4)c3C=C1CCN(S(=O)(=O)c1ccc(F)c(F)c1)C2 [Example 11BU]", "human recombinant GR (Homo sapiens)", "Ki", "> 1 nM"),
    ("O=C(c1ccccn1)[C@]12Cc3cnn(-c4ccc(F)cc4)c3C=C1CCN(S(=O)(=O)c1cccc(F)c1)C2 [Example 5G]", "human recombinant GR (Homo sapiens)", "Ki", "< 0.5 nM"),
    ("CC(C)n1nncc1S(=O)(=O)N1CCC2=Cc3c(cnn3-c3ccc(F)cc3)C[C@]2(C(=O)c2ccccn2)C1 [Example 11CU]", "human recombinant GR (Homo sapiens)", "Ki", "0.5 to 1 nM"),
    ("Cc1ccc(S(=O)(=O)N2CCC3=Cc4c(cnn4-c4ccc(F)cc4)C[C@]3(C(=O)c3nccs3)C2)cc1F [Example 12C]", "human recombinant GR (Homo sapiens)", "Ki", "< 0.5 nM"),
]

IN: Query (compound): Cc1ccnc(C(=O)[C@]23Cc4cnn(-c5ccc(F)cc5)c4C=C2CCN(S(=O)(=O)c2cnc4c(c2)OCCN4C)C3)c1 [Example 11AM] ; field requested: Ki
OUT: < 0.5 nM

IN: Query (compound): Cc1cccc(S(=O)(=O)N2CCC3=Cc4c(cnn4-c4ccc(F)cc4)C[C@]3(C(=O)c3cscn3)C2)c1 [Example 11F] ; field requested: Ki
OUT: < 0.5 nM
